Source: patent US20230406942A1

- Subject of test: IGF-1R on NCI-H322 cells (UniProt P08069 31-1367, limits assumed)
- Sequence (P08069 31-1367 limits assumed): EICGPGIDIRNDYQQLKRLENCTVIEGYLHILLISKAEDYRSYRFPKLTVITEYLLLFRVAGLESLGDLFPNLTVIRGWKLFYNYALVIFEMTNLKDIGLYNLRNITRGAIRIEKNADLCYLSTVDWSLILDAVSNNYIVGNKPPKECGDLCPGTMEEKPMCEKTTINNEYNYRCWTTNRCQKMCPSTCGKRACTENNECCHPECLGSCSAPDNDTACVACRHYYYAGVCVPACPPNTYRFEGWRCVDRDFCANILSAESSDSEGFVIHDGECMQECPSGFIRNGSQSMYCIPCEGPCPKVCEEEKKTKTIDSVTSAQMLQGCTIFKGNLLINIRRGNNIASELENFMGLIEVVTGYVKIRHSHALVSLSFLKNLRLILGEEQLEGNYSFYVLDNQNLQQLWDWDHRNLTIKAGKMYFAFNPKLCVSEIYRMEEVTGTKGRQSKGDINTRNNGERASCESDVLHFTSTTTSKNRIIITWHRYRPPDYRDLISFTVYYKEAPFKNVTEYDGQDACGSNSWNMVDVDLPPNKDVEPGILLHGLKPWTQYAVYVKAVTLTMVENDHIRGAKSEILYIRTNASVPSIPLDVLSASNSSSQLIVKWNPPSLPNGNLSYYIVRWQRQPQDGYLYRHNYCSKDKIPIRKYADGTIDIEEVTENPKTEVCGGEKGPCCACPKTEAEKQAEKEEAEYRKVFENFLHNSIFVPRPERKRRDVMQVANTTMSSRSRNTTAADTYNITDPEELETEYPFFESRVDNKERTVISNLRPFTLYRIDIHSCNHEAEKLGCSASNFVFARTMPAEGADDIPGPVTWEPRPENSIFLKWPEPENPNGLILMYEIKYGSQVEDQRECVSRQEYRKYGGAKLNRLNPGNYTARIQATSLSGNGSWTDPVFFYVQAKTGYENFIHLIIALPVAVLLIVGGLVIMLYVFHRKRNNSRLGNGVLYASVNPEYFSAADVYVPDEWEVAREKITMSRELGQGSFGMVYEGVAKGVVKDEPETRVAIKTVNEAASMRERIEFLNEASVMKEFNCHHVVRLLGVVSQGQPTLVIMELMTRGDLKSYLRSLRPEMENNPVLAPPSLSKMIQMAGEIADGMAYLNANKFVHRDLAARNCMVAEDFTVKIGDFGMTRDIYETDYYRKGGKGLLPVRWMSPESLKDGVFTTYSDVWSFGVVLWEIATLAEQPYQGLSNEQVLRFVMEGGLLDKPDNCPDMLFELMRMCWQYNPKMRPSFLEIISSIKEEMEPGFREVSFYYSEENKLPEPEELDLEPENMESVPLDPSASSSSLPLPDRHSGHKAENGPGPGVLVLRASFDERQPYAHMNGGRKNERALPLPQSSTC
- Assay explanation: cell-based or functional assay
# Inhibition of Phosphorylation IC50 annotations
# do not omit the unit; it follows the number

Q) What value of Inhibition of Phosphorylation IC50 has been reported for the following binder? Teprotumumab reference antibody (antibody, V domains shown) VH: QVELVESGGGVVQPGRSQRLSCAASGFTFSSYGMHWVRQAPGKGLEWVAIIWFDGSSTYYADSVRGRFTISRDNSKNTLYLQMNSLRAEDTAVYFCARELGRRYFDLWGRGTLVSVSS VL: EIVLTQSPATLSLSPGERATLSCRASQSVSSYLAWYQQKPGQAPRLLIYDASKRATGIPARFSGSGSGTDFTLTISSLEPEDFAVYYCQQRSKWPPWTFGQGTKVESK
A) 10.6 ng/mL

New cases:
Q) Field request: Inhibition of Phosphorylation IC50 | item: C10 antibody (antibody, V domains shown) VH: QVELVESGGGVVQPGRSQRLSCAASGFTFSSAGMHWVRQAPGKGLEWVAIIWADGSSTYYADSVRGRFTISRDNSKNTLYLQMNSLRAEDTAVYFCARELGRRYFDLWGRGTLVSVSS VL: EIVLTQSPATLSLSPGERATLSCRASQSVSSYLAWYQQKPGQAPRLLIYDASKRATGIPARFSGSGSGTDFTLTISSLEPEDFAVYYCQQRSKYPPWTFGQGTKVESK
A) 6.5 ng/mL

Q) Request the reported Inhibition of Phosphorylation IC50 associated with D10 antibody (antibody, V domains shown) VH: QVELVESGGGVVQPGRSQRLSCAASGFTFSSYGMHWVRQAPGKGLEWVAIINFDGSSTYYADSVRGRFTISRDNSKNTLYLQMNSLRAEDTAVYFCARELGRRYFDLWGRGTLVSVSS VL: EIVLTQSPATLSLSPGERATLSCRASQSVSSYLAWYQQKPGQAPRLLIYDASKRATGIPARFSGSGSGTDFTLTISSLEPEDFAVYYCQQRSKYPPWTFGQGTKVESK
A) 6.7 ng/mL

Q) Fill blank: measured Inhibition of Phosphorylation IC50 of the binder E01 antibody (antibody, V domains shown, Whole antibody) VH: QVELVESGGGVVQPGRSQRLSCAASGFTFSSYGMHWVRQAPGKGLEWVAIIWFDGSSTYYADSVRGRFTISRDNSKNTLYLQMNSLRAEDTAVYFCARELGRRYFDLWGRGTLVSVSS VL: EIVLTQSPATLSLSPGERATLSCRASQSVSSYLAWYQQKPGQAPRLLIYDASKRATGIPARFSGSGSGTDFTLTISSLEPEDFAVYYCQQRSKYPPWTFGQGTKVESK is ____.
A) 6.4 ng/mL

Q) Entry B02 antibody (antibody, V domains shown, Whole antibody) VH: QVELVESGGGVVQPGRSQRLSCAASGFTFSSTGMHWVRQAPGKGLEWVAYIWFDGSSTYYADSVRGRFTISRDNSKNTLYLQMNSLRAEDTAVYFCARELNRRYFDLWGRGTLVSVSS VL: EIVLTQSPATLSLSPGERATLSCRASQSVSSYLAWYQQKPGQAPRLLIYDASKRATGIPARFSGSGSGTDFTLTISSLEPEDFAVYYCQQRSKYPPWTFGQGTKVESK has what Inhibition of Phosphorylation IC50?
A) 13.5 ng/mL
